Assay: Pharmacokinetic study after intravenous administration to rats
Type: in vivo, rat
Conditions: rat, plasma, single dose 1.67 mg/kg
result_type: Cmax

molecule="Cc1c(Cc2ccc(C#N)cc2)c(=O)oc2cc(OCCOc3no[n+]([O-])c3S(=O)(=O)c3ccccc3)ccc12 [CY-16S-4A43]" measured_value="1210 ng/mL"
molecule="Cc1c(Cc2ccc(C(F)(F)F)cc2)c(=O)oc2cc(OCCOc3no[n+]([O-])c3S(=O)(=O)c3ccccc3)ccc12 [CY-16S-4A93]" measured_value="9380 ng/mL"
